So I've got a bunch of compounds here, and I need their EC50 values.
- TEST SYSTEM: TYK2 (Homo sapiens (Human), UniProt P29597)
- Sequence (P29597 871-1187): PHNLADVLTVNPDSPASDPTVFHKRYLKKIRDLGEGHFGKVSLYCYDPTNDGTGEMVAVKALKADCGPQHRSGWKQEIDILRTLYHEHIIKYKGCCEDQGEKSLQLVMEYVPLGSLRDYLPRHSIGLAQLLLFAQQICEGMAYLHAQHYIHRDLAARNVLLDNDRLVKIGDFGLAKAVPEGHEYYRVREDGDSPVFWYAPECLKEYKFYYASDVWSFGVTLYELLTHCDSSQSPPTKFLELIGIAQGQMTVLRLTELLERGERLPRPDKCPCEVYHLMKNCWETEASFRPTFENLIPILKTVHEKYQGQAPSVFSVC
- METHOD: JAK kinase assay (HTRF), TYK2
- Type: biochemical
- PARTICULARS: catalytic domain (aa 871-1187), GST-tag, ATP at Km (13 μM)
Dear colleague, please return just the value in nM, with no unit written.

For reference, reported EC50 for C[C@]12CN(c3ncc(C#N)cn3)CC[C@H]1CCN(c1ncnc3[nH]ccc13)C2 (racemic) stands at 740

For reference, reported EC50 for Cc1cc(C#N)cnc1N1CC[C@H]2CCN(c3ncnc4[nH]ccc34)C[C@@]2(C)C1 (racemic) stands at 976

For reference, reported EC50 for C[C@]12CN(c3ccc(C#N)nn3)CC[C@H]1CCN(c1ncnc3[nH]ccc13)C2 (racemic) stands at 634

For reference, reported EC50 for C[C@]12CN(c3ncc(Br)cc3CO)C[C@H]1CCN(c1ncnc3[nH]ccc13)C2 (racemic) stands at 611

###

- TEST SYSTEM: JAK1 (Homo sapiens (Human), UniProt P23458)
- Sequence (P23458 850-1154): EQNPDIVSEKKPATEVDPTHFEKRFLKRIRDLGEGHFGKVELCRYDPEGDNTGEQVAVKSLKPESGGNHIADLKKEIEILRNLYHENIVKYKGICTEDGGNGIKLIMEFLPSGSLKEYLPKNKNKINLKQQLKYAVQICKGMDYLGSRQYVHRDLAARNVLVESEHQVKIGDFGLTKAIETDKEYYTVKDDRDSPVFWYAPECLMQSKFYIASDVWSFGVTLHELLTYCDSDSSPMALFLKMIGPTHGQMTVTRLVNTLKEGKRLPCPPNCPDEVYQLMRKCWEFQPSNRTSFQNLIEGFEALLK
- METHOD: JAK kinase assay (HTRF), JAK1
- PARTICULARS: catalytic domain (aa 850-1154), GST-tag, ATP at Km (7 μM)
TEST READOUT: pEC50
Convention used: pEC50 is expressed as -log10 of the molar concentration.

For reference, reported pEC50 for `C[C@@]12CN(C#N)C[C@@H]1CCN(c1ncnc3[nH]ccc13)C2` stands at 6.62

For reference, reported pEC50 for C[C@]12CN(c3ncccc3CO)C[C@H]1CCN(c1ncnc3[nH]ccc13)C2 (racemic) stands at 7.16

For reference, reported pEC50 for `CC[C@]12CN(c3ncnc4[nH]ccc34)CC[C@H]1CCN(S(N)(=O)=O)C2` stands at 6.84

For reference, reported pEC50 for CCC12CNCCC1CCN(c1ncnc3[nH]ccc13)C2 (centres unmarked) [Intermediate 10] stands at 7.80

For reference, reported pEC50 for CC[C@@]12CN(c3ncnc4[nH]ccc34)CC[C@@H]1CCN(S(N)(=O)=O)C2 [Example 18] stands at 8.70

For reference, reported pEC50 for `CC[C@@]12CN(C#N)CC[C@@H]1CCN(c1ncnc3[nH]ccc13)C2` stands at 7.10

For reference, reported pEC50 for C[C@]12CN(c3ccncn3)C[C@H]1CCN(c1ncnc3[nH]ccc13)C2 (racemic) stands at 7.74

For reference, reported pEC50 for C[C@]12CN(c3ncc(C#N)cn3)C[C@H]1CCN(c1ncnc3[nH]ccc13)C2 (racemic) stands at 7.31

For reference, reported pEC50 for C[C@]12CN(C(=O)C3(C#N)CCCC3)C[C@H]1CCN(c1ncnc3[nH]ccc13)C2 (racemic) stands at 7.01

For reference, reported pEC50 for C[C@]12CN(c3ccc(C#N)nn3)C[C@H]1CCN(c1ncnc3[nH]ccc13)C2 (racemic) stands at 8.00

For reference, reported pEC50 for C[C@]12CN(c3ccc(C#N)nn3)CC[C@H]1CCN(c1ncnc3[nH]ccc13)C2 (racemic) stands at 7.77

###

So I've got a bunch of compounds here, and I need their EC50 values.
- TEST SYSTEM: JAK3 (Homo sapiens (Human), UniProt P52333)
- Sequence (P52333 822-1111): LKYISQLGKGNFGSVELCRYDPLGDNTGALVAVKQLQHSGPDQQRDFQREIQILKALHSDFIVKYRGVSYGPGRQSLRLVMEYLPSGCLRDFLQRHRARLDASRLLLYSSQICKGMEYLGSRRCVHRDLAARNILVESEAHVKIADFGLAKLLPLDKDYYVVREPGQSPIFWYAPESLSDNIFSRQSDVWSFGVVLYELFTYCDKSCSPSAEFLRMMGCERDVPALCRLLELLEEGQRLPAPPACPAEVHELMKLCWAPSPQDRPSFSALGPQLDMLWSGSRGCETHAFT
- METHOD: JAK kinase assay (HTRF), JAK3
- PARTICULARS: catalytic domain, His-tag, ATP at Km (2 μM)
Dear colleague, please return just the value in nM, with no unit written.

The observed EC50 for Cc1cc(C#N)cnc1N1CC[C@H]2CCN(c3ncnc4[nH]ccc34)C[C@@]2(C)C1 (racemic) [Example 11] when tested with JAK3 (Homo sapiens (Human), UniProt P52333) stands at 85

The observed EC50 for C[C@]12CN(c3ccc(S(C)(=O)=O)cn3)C[C@H]1CCN(c1ncnc3[nH]ccc13)C2 (racemic) [Example 35] when tested with JAK3 (Homo sapiens (Human), UniProt P52333) stands at 95

The observed EC50 for C[C@]12CN(c3cnc(C#N)cn3)CC[C@H]1CCN(c1ncnc3[nH]ccc13)C2 (racemic) [Example 4] when tested with JAK3 (Homo sapiens (Human), UniProt P52333) stands at 4

The observed EC50 for C[C@]12CN(C#N)C[C@H]1CCN(c1ncnc3[nH]ccc13)C2 [Example 29] when tested with JAK3 (Homo sapiens (Human), UniProt P52333) stands at 118

The observed EC50 for C[C@]12CN(c3ccc(C#N)cn3)C[C@H]1CCN(c1ncnc3[nH]ccc13)C2 (racemic) [Example 47] when tested with JAK3 (Homo sapiens (Human), UniProt P52333) stands at 26

The observed EC50 for C[C@]12CN(C#N)CC[C@H]1CCN(c1ncnc3[nH]ccc13)C2 (relative stereo) [Example 2] when tested with JAK3 (Homo sapiens (Human), UniProt P52333) stands at 25

The observed EC50 for CC[C@]12CN(c3nc(C#N)cs3)CC[C@H]1CCN(c1ncnc3[nH]ccc13)C2 (relative stereo) [Example 25] when tested with JAK3 (Homo sapiens (Human), UniProt P52333) stands at 29

The observed EC50 for C[C@@]12CN(c3ncnc4[nH]ccc34)CC[C@@H]1CN(S(=O)(=O)CC(F)(F)F)C2 (racemic) [Example 31] when tested with JAK3 (Homo sapiens (Human), UniProt P52333) stands at 274

The observed EC50 for Cc1cc(N2C[C@H]3CCN(c4ncnc5[nH]ccc45)C[C@@]3(C)C2)ncc1C#N (racemic) [Example 40] when tested with JAK3 (Homo sapiens (Human), UniProt P52333) stands at 46

The observed EC50 for CC[C@]12CN(C=O)CC[C@H]1CCN(c1ncnc3[nH]ccc13)C2 (relative stereo) [Example 16] when tested with JAK3 (Homo sapiens (Human), UniProt P52333) stands at 43

The observed EC50 for C[C@]12CN(c3ccc(C#N)cn3)CC[C@H]1CCN(c1ncnc3[nH]ccc13)C2 (racemic) [Example 5] when tested with JAK3 (Homo sapiens (Human), UniProt P52333) stands at 7

The observed EC50 for CC[C@@]12CN(c3ncnc4[nH]ccc34)CC[C@@H]1CCN(S(N)(=O)=O)C2 (relative stereo) [Example 17] when tested with JAK3 (Homo sapiens (Human), UniProt P52333) stands at 3

The observed EC50 for C[C@@]12CN(c3ncnc4[nH]ccc34)CC[C@@H]1CCN(S(C)(=O)=O)C2 (racemic) [Example 13] when tested with JAK3 (Homo sapiens (Human), UniProt P52333) stands at 75

The observed EC50 for C[C@]12CN(c3ncc(C#N)cn3)CC[C@H]1CCN(c1ncnc3[nH]ccc13)C2 (racemic) [Example 7] when tested with JAK3 (Homo sapiens (Human), UniProt P52333) stands at 5

The observed EC50 for C[C@]12CN(C(=O)C3(C#N)CCCC3)C[C@H]1CCN(c1ncnc3[nH]ccc13)C2 (racemic) [Example 46] when tested with JAK3 (Homo sapiens (Human), UniProt P52333) stands at 705
